This collection of values is drawn from patent US20250340591A1.

- targetSystem: T1, GPR39 (G protein coupled receptor 39) (UniProt O43194 1-453, limits assumed)
- T1 sequence (looked up): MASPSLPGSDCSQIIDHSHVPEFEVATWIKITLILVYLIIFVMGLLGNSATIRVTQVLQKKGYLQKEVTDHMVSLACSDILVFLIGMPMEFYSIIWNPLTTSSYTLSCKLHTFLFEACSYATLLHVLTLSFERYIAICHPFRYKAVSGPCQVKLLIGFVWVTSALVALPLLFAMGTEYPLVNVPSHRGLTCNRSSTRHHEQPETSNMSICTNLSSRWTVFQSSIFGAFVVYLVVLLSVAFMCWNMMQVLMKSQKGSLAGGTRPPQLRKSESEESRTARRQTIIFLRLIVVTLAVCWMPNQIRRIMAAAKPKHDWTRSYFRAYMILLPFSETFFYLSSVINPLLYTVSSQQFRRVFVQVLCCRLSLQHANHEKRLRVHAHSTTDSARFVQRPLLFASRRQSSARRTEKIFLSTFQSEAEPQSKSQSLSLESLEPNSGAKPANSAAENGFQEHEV
- experimentDescription: cell-based or functional assay
Square brackets hold non-standard residues; d marks the D form. Ends that are not written are not given here. * marks the point of attachment. 4‑methoxybenzhydryl = (4-methoxyphenyl)(phenyl)methyl on the His imidazole, COc1ccc(C(c2ccccc2)*)cc1; Tyr(3-NH2) = Nc1cc(C[C@H](N)C(=O)O)ccc1O; dPhe(4-Me) = Cc1ccc(C[C@@H](N)C(=O)O)cc1; Trt = c1ccc(C(c2ccccc2)(c2ccccc2)*)cc1; Benzhydryl = c1ccc(C(c2ccccc2)*)cc1; Lauroyl = CCCCCCCCCCCC(=O)*; Octanoyl = CCCCCCCC(=O)*
measurementType: ECmax; SRE-luciferase reporter

Look over these answered cases.
binder	ECmax; SRE-luciferase reporter
H(Benzhydryl)K(Octanoyl)[dPhe(4-Me)][Tyr(3-NH2)]-OH [HKFY-70]	10.1 -fold induction over basal
HK(Octanoyl)FY (not fully specified; also: His1 substituent: adamantan-1-yl or adamantanmethyl) [HKFY-23]	15 -fold induction over basal
H(4‑methoxybenzhydryl)K(Octanoyl)[dPhe(4-Me)]Y-OH [HKFY-64]	16 -fold induction over basal
H(Trt)K(Octanoyl)LY-OH [HKFY-51]	14.4 -fold induction over basal
HK(Octanoyl)[dPhe(4-Me)]Y (not fully specified (residue 1)) [HKFY-32]	21.5 -fold induction over basal

Q: Identify measured ECmax; SRE-luciferase reporter corresponding to H(Trt)K(Lauroyl)FY-OH [HKFY-25]
A: 7.72 -fold induction over basal

Q: Identify measured ECmax; SRE-luciferase reporter corresponding to H(Trt)K(Octanoyl)FY [HKFY-1]
A: 20.5 -fold induction over basal
